# Tested on: Salmonella choleraesuis
# procedure summary: MIC in nutrient agar, Salmonella choleraesuis
# Format: cell-based, Salmonella choleraesuis (ATCC 10708)
# condition context: Salmonella enterica, Sc, pH 8.2, 30° C., 48 hours, read-out: Minimum Inhibitory Concentration (MIC)
Recorded MIC values for a group of compounds are listed next.

>  <compound>
N#CSCOc1nsnc1OCSC#N [Example 8]

>  <quantity measured>
MIC

>  <assay value>
50 µg/mL

$$$$
>  <compound>
N#CSc1nsnc1SC#N [Example 2, Bis(thiocyanato)-1,2,5-thiadiazole]

>  <quantity measured>
MIC

>  <assay value>
100 µg/mL

$$$$
>  <compound>
N#CSCSc1nsnc1Cl [Example 3]

>  <quantity measured>
MIC

>  <assay value>
50 µg/mL

$$$$

Query: Give MIC for the following compound: N#CSCCSc1nsnc1SCCSC#N [Example 5]
Reply: > 500 µg/mL

Query: Give MIC for the following compound: N#CSCOc1nsnc1Cl [Example 6]
Reply: 25 µg/mL

Query: Give MIC for the following compound: N#CSCSc1nsnc1SCSC#N [Example 4]
Reply: 25 µg/mL

----------
Recorded MIC values for a group of compounds are listed next.
# System: Escherichia coli
# procedure summary: MIC in nutrient agar, Escherichia coli
# Type: cell-based, Escherichia coli (ATCC 11229)
# condition context: Ec, pH 6.8, 30° C., 48 hours, read-out: Minimum Inhibitory Concentration (MIC)
Give the value, in units of µg/mL, as a plain number.

The examples below pair each entry with its known result.
>  <molecule>
N#CSCSc1nsnc1SCSC#N

>  <MIC, µg/mL>
25

$$$$
>  <molecule>
N#CSCOc1nsnc1Cl

>  <MIC, µg/mL>
25

$$$$
>  <molecule>
N#CSCOc1nsnc1OCSC#N

>  <MIC, µg/mL>
50

$$$$
>  <molecule>
COc1nsnc1OCSC#N

>  <MIC, µg/mL>
25

$$$$
>  <molecule>
N#CSc1nsnc1SC#N

>  <MIC, µg/mL>
25

$$$$

Let us move to another entry and its MIC.
Query: Please tell me the measured MIC for N#CSCSc1nsnc1Cl ; system: Escherichia coli.
Reply: 25

----------
Recorded MIC values for a group of molecules are listed next.
# System: Bacillus subtilis
# procedure summary: MIC in nutrient agar, Bacillus subtilis
# Assay type: cell-based, Bacillus subtilis (ATCC 8473)
# condition context: Bs, pH 8.2, 30° C., 48 hours, read-out: Minimum Inhibitory Concentration (MIC)
Give the value, in units of µg/mL, as a plain number.

>  <molecule>
N#CSCSc1nsnc1Cl

>  <MIC (µg/mL)>
25

$$$$
>  <molecule>
N#CSCOc1nsnc1Cl

>  <MIC (µg/mL)>
25

$$$$
>  <molecule>
N#CSCOc1nsnc1OCSC#N

>  <MIC (µg/mL)>
25

$$$$

Query: Give MIC for the following molecule: N#CSc1nsnc1SC#N
Reply: 100

----------
# Test system: Salmonella choleraesuis
# procedure summary: MIC in nutrient agar, Salmonella choleraesuis
# Assay type: cell-based, Salmonella choleraesuis (ATCC 10708)
# condition context: Salmonella enterica, Sc, pH 6.8, 30° C., 48 hours, read-out: Minimum Inhibitory Concentration (MIC)
quantity measured: MIC

The examples below pair each entry with its known result.
>  <molecule>
N#CSCSc1nsnc1SCSC#N [Example 4]

>  <system tested>
Salmonella choleraesuis

>  <quantity measured>
MIC

>  <assay value>
25 µg/mL

$$$$
>  <molecule>
N#CSCSc1nsnc1Cl [Example 3]

>  <system tested>
Salmonella choleraesuis

>  <quantity measured>
MIC

>  <assay value>
25 µg/mL

$$$$
>  <molecule>
N#CSCOc1nsnc1Cl [Example 6]

>  <system tested>
Salmonella choleraesuis

>  <quantity measured>
MIC

>  <assay value>
< 10 µg/mL

$$$$
>  <molecule>
N#CSCOc1nsnc1OCSC#N [Example 8]

>  <system tested>
Salmonella choleraesuis

>  <quantity measured>
MIC

>  <assay value>
25 µg/mL

$$$$
>  <molecule>
N#CSc1nsnc1SC#N [Example 2, Bis(thiocyanato)-1,2,5-thiadiazole]

>  <system tested>
Salmonella choleraesuis

>  <quantity measured>
MIC

>  <assay value>
25 µg/mL

$$$$

Query: Give MIC for the following molecule: COc1nsnc1OCSC#N [Example 7]
Reply: 25 µg/mL

Query: Give MIC for the following molecule: N#CSCCSc1nsnc1SCCSC#N [Example 5]
Reply: > 500 µg/mL

The reported numbers originate from patent US5491155A.
